Tested on: Klebsiella pneumoniae CF104
PROTOCOL_SUMMARY: MIC by broth microdilution (NCCLS M7-A5)
ASSAY_CONDITIONS: + 324 + clavulanate, 4 mg/L each
Exercise: for every item that follows, state its recorded MIC of antibiotic.
Give bare numbers, in µg/mL.

As a guide, the following entries are already answered.
NC(=O)OCC1C(NC(=O)C(=NOCc2cc(=O)c(O)cn2O)c2nc(N)sc2Cl)C(=O)N1OS(=O)(=O)O (stereo not drawn)
2
CC1C(NC(=O)C(=NOCc2cc(=O)c(O)cn2O)c2csc(N)n2)C(=O)N1S(=O)(=O)O (stereo not drawn)
1
CC1(C)C(NC(=O)C(=NOCc2cc(=O)c(O)cn2O)c2nsc(N)n2)C(=O)N1OS(=O)(=O)O (stereo not drawn)
1

Hello, I would appreciate it if you could give MIC of antibiotic for each entry below.
1. C[C@H](ON1C(=O)[C@@H](NC(=O)/C(=N\OCc2cc(=O)c(O)cn2O)c2csc(N)n2)[C@@H]1C)C(=O)O
2. CC1(C)C(NC(=O)C(=NOCc2cc(=O)c(O)cn2O)c2csc(N)n2)C(=O)N1OCC(=O)O (stereo not drawn)
3. NC(=O)OCC1C(NC(=O)C(=NOCc2cc(=O)c(O)cn2O)c2csc(N)n2)C(=O)N1OS(=O)(=O)O (stereo not drawn)

// result
1. 1
2. 0.5
3. 0.5

* * *

Test system: Pseudomonas aeruginosa MK1184
PROTOCOL_SUMMARY: MIC by broth microdilution (NCCLS M7-A5)
ASSAY_CONDITIONS: antibiotic alone
Exercise: for every item that follows, state its recorded MIC of antibiotic.

As a guide, the following entries are already answered.
C[C@H]1[C@H](NC(=O)/C(=N\OCc2cc(=O)c(O)cn2O)c2nccc(N)n2)C(=O)N1S(=O)(=O)O
>32 µg/mL
CC1C(NC(=O)C(=NOCc2cc(=O)c(O)cn2O)c2csc(NC=O)n2)C(=O)N1S(=O)(=O)O (centres unmarked)
>32 µg/mL
CC1C(NC(=O)C(=NOCc2cc(=O)c(O)cn2O)c2noc(N)n2)C(=O)N1S(=O)(=O)O (centres unmarked)
>32 µg/mL
NC(=O)OCC1C(NC(=O)C(=NOCc2cc(=O)c(O)cn2O)c2csc(N)n2)C(=O)N1OS(=O)(=O)O (centres unmarked)
>32 µg/mL
C[C@H]1[C@H](NC(=O)/C(=N\OCc2cc(=O)c(O)cn2O)c2nc(N)sc2Cl)C(=O)N1OS(=O)(=O)O
>32 µg/mL
CC1C(NC(=O)C(=NOCc2cc(=O)c(O)cn2O)c2cccc(N)n2)C(=O)N1S(=O)(=O)O (centres unmarked)
>32 µg/mL
Nc1nc(C(=NOCc2cc(=O)c(O)cn2O)C(=O)NC2CN(S(=O)(=O)O)C2=O)cs1 (centres unmarked)
>32 µg/mL

Then this molecule:
// query // returns reported MIC of antibiotic for input CC1C(NC(=O)C(=NOCc2cc(=O)c(O)cn2O)c2csc(N)n2)C(=O)N1S(=O)(=O)O (centres unmarked)
// result >32 µg/mL
